tested on: NCI-H522 lung; assay: NCI tumour cell line growth inhibition, 48 h
Recorded metric: GI50

Compound | Target system | Result
O=c1cc(-c2ccccc2)[nH]c2c1CCCC2 | NCI-H522 lung | 2 µM
FC(F)c1ncc(-c2ccc(C(F)(F)F)cc2)c(NC2CCCCCC2)n1 | NCI-H522 lung | > 10 µM
CN1CCN(CCCOc2ccc3nc(Nc4ccc(F)c(F)c4)ccc3c2)CC1 | NCI-H522 lung | 1.44 µM

Would you mind telling me what GI50 value was observed for O=C1NC(=O)C(=Cc2cn(Cc3ccccc3)c3ccccc23)C(=O)N1 ?
13.1 µM

Try the compound O=C1OCC2=C1C(c1cccc(C(F)(F)F)c1)c1cc3c(cc1N2CCO)OCCO3 (stereo unspecified)
0.488 µM

Continue with CC12CCC(=O)C(O1)C1C(=O)c3ccc4c(ccc5ccccc54)c3C(=O)C12 (stereo unspecified)
5.52 µM

---

TGI values for the compounds below.
test system: OVCAR-3 ovarian; test: NCI tumour cell line growth inhibition, 48 h

Here is how some compounds turned out for TGI.
Compound | TGI
CCOC(=O)CCc1cn2cc(Br)nc(OC)c2n1 | > 100 µM
Nc1nc(Cl)nc2c1ncn2C1OC(CO)C(O)C1F (stereo not drawn) | > 100 µM
O=C1NC(=O)C(c2cccc(Cl)c2)=C1Nc1ccc(Cl)c(C(=O)O)c1 | > 25 µM
O=c1[nH]nc(-c2ccccc2)c2[nH]c3c(c12)Cc1ccccc1-3 | > 49 µM
Oc1c(Cl)cc2cc1-c1cc(cc(Cl)c1O)CCc1c(cc(Cl)c(O)c1Cl)-c1cc(Cl)c(c(Cl)c1O)/C=C\2 | 14.4 µM
Cc1c(OCc2cccc3ccccc23)ccc2c(=O)cc(SCCN3CCOCC3)oc12 | > 100 µM
[N-]=[N+]=Nc1nc2ccccc2c(N=[N+]=[N-])c1Cl | > 100 µM
CC(C)N(C(=O)C12C3C4C5(C(=O)O)C(C1C35I)C42C(=O)O)C(C)C (stereo not drawn) | > 100 µM

What value of TGI has been reported for the following compound? CC(C)=Cc1cc(C)c2ccc(C)c3c2c1C(C)=C(O)C3=O
49.2 µM

Also need CSc1nnc(SCc2nn3c(=O)cc(C)nc3s2)s1 , thanks.
> 100 µM

Also need CC(C)C1(NC(=O)C2CC3c4cccc5[nH]cc(c45)CC3N(C)C2)OC2(O)C3CCCN3C(=O)C(Cc3ccccc3)N2C1=O (stereo not drawn) , thanks.
> 100 µM

---

system: NCI-H460 lung; experiment: NCI tumour cell line growth inhibition, 48 h
Recorded metric: log10(TGI) (log10 of the value in µM)
Could you please treat all values as log10 of TGI in µM?

Molecule | Recorded metric | Result number
O=[N+]([O-])c1cc(/C=N\NS(=O)(=O)c2ccc(Cl)cc2)c(O)c([N+](=O)[O-])c1 | log10(TGI) | 1.74
CC/C=C/c1cc2c(cc1O)CCC1C2CC[C@@]2(C)C1CC[C@@H]2O (stereo not given in full) | log10(TGI) | 1.24
O=C(O)COc1ccc(OCC(=O)O)cc1 | log10(TGI) | 0.18
Cc1ccc(S(=O)(=O)n2cc([C@@]3(O)C[C@H](CSC#N)OC3=O)c3ccccc32)cc1 | log10(TGI) | 1.38

We next turn to a different molecule, shown below.
Any idea what log10(TGI) was measured for O=C1N2CCC[C@H]2CS1(=O)=O ?
1.94
